Test system: Nucleic Acid
ASSAY PROTOCOL: Binding affinity to Bacillus subtilis AM1A C11U antiterminator model RNA variant assessed as increase in fluorescence by FRET assay relative to control
Format: nucleic-acid assay
Design: concentration or dose not given beside the values
MEASURE NAME: Activity (%)
Quick reminder: number only, in %, skip the unit.

Please fill in: Activity reported for O=C(CCCCCc1ccccc1)OC[C@H]1OC(=O)N[C@@H]1CN1CCN(c2ccccc2)CC1 = 30.9

Consider CCCC(=O)OC[C@H]1OC(=O)N[C@@H]1CN1CCN(c2ccccc2)CC1 . Its measured Activity is 19.7

The measured Activity associated with Cc1cccc(NC(=O)OC[C@H]2OC(=O)N[C@@H]2CN2CCN(c3ccccc3)CC2)c1 reads 26.7

---

Documented Activity across a set of compounds
Test system: Nucleic Acid
ASSAY PROTOCOL: Binding affinity to Bacillus subtilis AM1A C11U antiterminator model RNA variant assessed as increase in fluorescence by FRET assay relative to control
Type: nucleic-acid assay
Design: concentration or dose not given beside the values
Lab note: write values as number then unit, every time.

Worked examples follow.
compound=Cc1c(C(=O)OC[C@H]2OC(=O)N[C@@H]2CN2CCN(c3ccccc3)CC2)cccc1[N+](=O)[O-] measure_name=Activity value_reported=24.5%
compound=CCCCNC(=O)OC[C@H]1OC(=O)N[C@@H]1CN1CCN(c2ccccc2)CC1 measure_name=Activity value_reported=14%
compound=COc1cccc(CC(=O)OC[C@H]2OC(=O)N[C@@H]2CN2CCN(c3ccccc3)CC2)c1 measure_name=Activity value_reported=19.6%

Let me check: CCCCCCNC(=O)OC[C@H]1OC(=O)N[C@@H]1CN1CCN(c2ccccc2)CC1 , system Nucleic Acid, measured Activity is 23.7%

GET /values?item= O=C(Nc1ccc(Cl)c(Cl)c1)OC[C@H]1OC(=O)N[C@@H]1CN1CCN(c2ccccc2)CC1 &system= Nucleic Acid returns Activity: 14.7%

---

# Activity values compiled below
Test system: Nucleic Acid
ASSAY PROTOCOL: Binding affinity to Bacillus subtilis AM1A C11U antiterminator model RNA variant assessed as increase in fluorescence by FRET assay relative to control
Type: nucleic-acid assay
Set-up: concentration or dose not given beside the values
Expressed in %, but write only the number.

smiles_str=O=C1N[C@H](CN2CCN(c3ccccc3)CC2)[C@@H](COC(=O)c2c(Cl)cccc2Cl)O1 measure_name=Activity value_reported=16.2
smiles_str=O=C(CCc1ccccc1)OC[C@H]1OC(=O)N[C@@H]1CN1CCN(c2ccccc2)CC1 measure_name=Activity value_reported=26.1
smiles_str=O=C1N[C@H](CN2CCN(c3ccccc3)CC2)[C@@H](COC(=O)C2CCCCC2)O1 measure_name=Activity value_reported=20.7
smiles_str=CCCCCCCC(=O)OC[C@H]1OC(=O)N[C@@H]1CN1CCN(c2ccccc2)CC1 measure_name=Activity value_reported=25.4
smiles_str=O=C(Nc1ccccc1)OC[C@H]1OC(=O)N[C@@H]1CN1CCN(c2ccccc2)CC1 measure_name=Activity value_reported=11.2

Activity recorded for this compound, CCCNC(=O)OC[C@H]1OC(=O)N[C@@H]1CN1CCN(c2ccccc2)CC1 , is 9.6

response.value for CC(=O)c1ccc(NC(=O)OC[C@H]2OC(=O)N[C@@H]2CN2CCN(c3ccccc3)CC2)cc1 (field: Activity) = 13.4

# Activity (compound: CC(C)(C)C(=O)OC[C@H]1OC(=O)N[C@@H]1CN1CCN(c2ccccc2)CC1 ) is 13.2

In plain terms, CCCCCC(=O)OC[C@H]1OC(=O)N[C@@H]1CN1CCN(c2ccccc2)CC1 has a documented Activity of 21

---

Test system: Nucleic Acid
ASSAY PROTOCOL: Binding affinity to Bacillus subtilis AM1A C11U antiterminator model RNA variant assessed as increase in fluorescence by FRET assay relative to control
Format: nucleic-acid assay
Design: concentration or dose not given beside the values
Use label 1 when the recorded Activity is no lower than 20%; use label 0 when it is lower.

See these solved cases before continuing.
smiles_str=O=C1N[C@H](CN2CCN(c3ccccc3)CC2)[C@@H](COC(=O)Oc2ccccc2)O1 target_desc="Nucleic Acid" answer_label="label 1"
smiles_str=N#Cc1ccccc1C(=O)OC[C@H]1OC(=O)N[C@@H]1CN1CCN(c2ccccc2)CC1 target_desc="Nucleic Acid" answer_label="label 0"
smiles_str=O=C(Cc1ccc(-c2ccccc2)cc1)OC[C@H]1OC(=O)N[C@@H]1CN1CCN(c2ccccc2)CC1 target_desc="Nucleic Acid" answer_label="label 1"
smiles_str=O=C(COc1ccccc1)OC[C@H]1OC(=O)N[C@@H]1CN1CCN(c2ccccc2)CC1 target_desc="Nucleic Acid" answer_label="label 0"
smiles_str=CCCCCc1ccc(NC(=O)OC[C@H]2OC(=O)N[C@@H]2CN2CCN(c3ccccc3)CC2)cc1 target_desc="Nucleic Acid" answer_label="label 0"

// switching to the query compound
Enquiry: Can O=C(CCCC1CCCCC1)OC[C@H]1OC(=O)N[C@@H]1CN1CCN(c2ccccc2)CC1 be said to have Activity at or above 20%?
Return: label 1

---

Test system: Nucleic Acid
ASSAY PROTOCOL: Binding affinity to Bacillus subtilis AM1A C11U antiterminator model RNA variant assessed as increase in fluorescence by FRET assay relative to control
Format: nucleic-acid assay
Design: concentration or dose not given beside the values
Measured Activity, listed per entry for reference.
// return numeric value only (unit: %, not printed)

Worked set:
compound=O=C1N[C@H](CN2CCN(c3ccccc3)CC2)[C@@H](COC(=O)c2ccccc2Oc2ccccc2)O1 target_desc="Nucleic Acid" units_of_measure=% value_reported=26.5
compound=O=C1N[C@H](CN2CCN(c3ccccc3)CC2)[C@@H](COC(=O)c2ccccc2Cl)O1 target_desc="Nucleic Acid" units_of_measure=% value_reported=28.8
compound="O=C(CC1CC2CCC1C2)OC[C@H]1OC(=O)N[C@@H]1CN1CCN(c2ccccc2)CC1 (some centres undefined)" target_desc="Nucleic Acid" units_of_measure=% value_reported=27.4

# ---- query compound ----
Reported Activity of O=C1N[C@H](CN2CCN(c3ccccc3)CC2)[C@@H](COC(=O)c2ccccc2I)O1 : 22.4
